Values were extracted from paper doi:10.1101/2025.01.15.633165.

- Test target: T1, DRB7.2 (M1-V190) (A. thaliana, UniProt F4JHB3 1-190)
- T1 construct: DRB7.2, A. thaliana, UniProt F4JHB3, residues M1-V190; Perdeuterated and U-15N labelled for NMR; Further cloning details are in Paturi & Deshmukh, 2023; also called full-length DRB7.2
- T1 sequence (looked up): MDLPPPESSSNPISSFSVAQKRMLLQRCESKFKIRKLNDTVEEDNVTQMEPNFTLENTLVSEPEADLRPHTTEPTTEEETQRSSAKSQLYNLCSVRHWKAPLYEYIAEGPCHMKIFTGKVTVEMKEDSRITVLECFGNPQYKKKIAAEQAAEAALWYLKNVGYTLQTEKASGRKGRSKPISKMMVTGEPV
- Test summary: ITC; DRB4 constructs (200 μM, syringe) injected into DRB7.2 or DRB7.2M (20 μM, cell); 25 °C; 50 mM potassium phosphate pH 7.0, 50 mM NaCl, 50 mM Na2SO4, 2 mM DTT
- Stated conditions: both partners purified
Measured parameter: Kd
The reply should read as a number followed by its unit.

State the recorded Kd for this entry: DRB4D3 (294-355) (domain or fragment, A. thaliana, UniProt Q8H1D4 294-355, looked up, DRB4, A. thaliana, UniProt Q8H1D4, residues 294-355 (E294-P355); Isotope labelled (15N, 13C, 2H) or perdeuterated for NMR; source: cloned, expressed and purified as described (Chiliveri et al, 2017)) ETSSCVVDESEKKKLIMGTGHLSIPTGQHVVCRPWNPEITLPQDAEMLFRDDKFIAYRLVKP
2.2 nM
